- TESTED TARGET: Lysosomal alpha-glucosidase (Homo sapiens) (UniProt P10253)
- ASSAY PROTOCOL: qHTS Assay for Activators of Human alpha-Glucosidase as a Potential Chaperone Treatment of Pompe Disease
- MEASUREMENT CONDITIONS: purified enzyme, 4-MU-alpha-glucoside fluorescence, 20 min; series mostly up to 76.9 µM
About 720 (0.36%) of roughly 200,000 compounds were called active. Roughly 8% stayed inconclusive and do not appear here. Some of the results follow.
OBSERVED PROPERTY: Potency

# Potency (compound: C=CCNC(=O)c1c(N)n(-c2cccc(S(N)(=O)=O)c2)c2nc3ccccc3nc12 ) is 25.1 µM (active)

# Potency (compound: CC1OC(Oc2ccc3ccc(=O)oc3c2-c2c(O)ccc3cc(Oc4ccc5ccc(=O)oc5c4)c(=O)oc23)C(O)C(O)C1O (stereo unspecified) ) is 39.8 µM (active)

# Potency (compound: Cc1cc(N2CCOCC2)nc2ccc(NC(=O)CCC(=O)N3CCCC(C)C3)cc12 (stereo unspecified) ) is 39.8 µM (active)

# Potency (compound: COc1ccccc1C1CN(c2ccc(F)cc2F)N=C1c1cccs1 (stereo unspecified) ) is 28.2 µM (active)

# Potency (compound: COC(=O)C1=CN(CC2CCCO2)C=C(C(=O)OC)C1c1ccsc1 (stereo unspecified) ) is 35.5 µM (active)

# Potency (compound: COCCCNC(=O)c1c(N)n(-c2cccc(S(N)(=O)=O)c2)c2nc3ccccc3nc12 ) is 35.5 µM (active)

# Potency (compound: COc1cc2nc(N3CCN(C(=O)C4COc5ccccc5O4)CC3)nc(N)c2cc1OC (stereo unspecified) ) is 39.8 µM (active)

# Potency (compound: O=C(Nc1ccc(-c2nc3ccccc3[nH]2)cc1)c1cccc(N2C(=O)CCC2=O)c1 ) is 35.5 µM (active)

# Potency (compound: Cc1ccc(C2OC34CCCCCC3C(C#N)(C(=N)O4)C2(C#N)C#N)cc1 (stereo unspecified) ) is 31.6 µM (active)

# Potency (compound: COC(=O)C1=CN(CC2CCCO2)C=C(C(=O)OC)C1c1cc(OC)c(OC)c(OC)c1 (stereo unspecified) ) is 35.5 µM (active)

# Potency (compound: CCCCn1c(=O)[nH]c(=O)c2c(C(=O)OCC)cc(-c3cccs3)nc21 ) is 35.5 µM (active)

# Potency (compound: O=S1(=O)CCN2C=C(Cl)C=C(Cl)C2=N1 ) is 35.5 µM (active)

# Potency (compound: Cn1c(C(=O)N2COCC2(C)C)cc2c(=O)n3ccccc3nc21 ) is 35.5 µM (active)

# Potency (compound: Fc1ccccc1N1CC(c2ccccc2)C(c2cccs2)=N1 (stereo unspecified) ) is 35.5 µM (active)

# Potency (compound: CCCCN(C(=O)NC(=O)C1=C(N2CCOCC2)/C(=C/c2ccccc2)CC1)S(C)(=O)=O ) is 31.6 µM (active)

# Potency (compound: CCCCc1cc(=O)oc2c(CN(CC)CC)c(O)c(Cl)cc12 ) is 35.5 µM (active)

# Potency (compound: CCCCc1cc(=O)oc2c(CN(C)C)c(O)ccc12 ) is 35.5 µM (active)

# Potency (compound: CC(=O)Nc1ccc(S(=O)(=O)NCC(=O)OCc2cc(=O)oc3ccc4ccccc4c23)cc1 ) is 35.5 µM (active)

# Potency (compound: COc1cc2nc(N(C)CCCNC(=O)C3CCCO3)nc(N)c2cc1OC (stereo unspecified) ) is 35.5 µM (active)

# Potency (compound: CN(C(=O)NC(=O)C1=C(N2CCOCC2)/C(=C/c2ccccc2)CC1)S(C)(=O)=O ) is 39.8 µM (active)

# Potency (compound: C=CCn1cc(-c2ccccc2)cc(C#N)c1=O ) is 35.5 µM (active)

* * *

Answer each item with its documented Potency.
- TESTED TARGET: Lysosomal alpha-glucosidase (Homo sapiens)
- ASSAY PROTOCOL: qHTS Assay for Activators of Human alpha-Glucosidase as a Potential Chaperone Treatment of Pompe Disease; further: potency means the concentration at half of the fitted maximal effect; nearly all actives have a fitted effect of over 80% in size
- MEASUREMENT CONDITIONS: purified enzyme, 4-MU-alpha-glucoside fluorescence, 20 min; series mostly up to 76.9 µM
The campaign covered roughly 200,000 compounds. About 720 (0.36%) were called active. About 8% were inconclusive and are not listed. The list shows a part of the results.

# Potency (compound: NS(=O)(=O)c1ccc(N2N=C(c3ccccc3)CC2c2cccc(F)c2)cc1 (stereo not given) ) is 35.5 µM (active)

# Potency (compound: CC(OC(=O)c1cc2c(ccc3ccccc32)oc1=O)c1nc2ccccc2s1 (stereo not given) ) is 28.2 µM (active)

# Potency (compound: COc1ccc(-c2cc(C(F)(F)F)n3nc(C(=O)NCCN4CCOCC4)cc3n2)cc1 ) is 44.7 µM (active)

# Potency (compound: Cc1cc(C)[n+](-c2ccc(F)cc2)c2[nH]c(=O)[nH]c(=O)c12 ) is 35.5 µM (active)

# Potency (compound: Cc1cc(C)[n+](-c2ccc(C(C)C)cc2)c2[nH]c(=O)[nH]c(=O)c12 ) is 35.5 µM (active)

* * *

- TESTED TARGET: Lysosomal alpha-glucosidase (Homo sapiens)
- ASSAY PROTOCOL: qHTS Assay for Activators of Human alpha-Glucosidase as a Potential Chaperone Treatment of Pompe Disease; further: potency means the concentration at half of the fitted maximal effect; nearly all actives have a fitted effect of over 80% in size
- MEASUREMENT CONDITIONS: purified enzyme, 4-MU-alpha-glucoside fluorescence, 20 min; series mostly up to 76.9 µM
Screen size: about 200,000 compounds; about 720 (0.36%) were called active. Not shown: some 8% with an inconclusive outcome. This is one part of the list.
OBSERVED PROPERTY: Potency

# Potency (compound: COc1ccccc1C1CC(c2ccco2)=NN1c1ccccc1 (stereo unspecified) ) is 31.6 µM (active)

# Potency (compound: O=c1oc2c(CN3CCOCC3)c(O)c(Cl)cc2c2c1CCC2 ) is 35.5 µM (active)

# Potency (compound: CCCOc1ccccc1C1C(C(=O)OC)=CN(C(C)C)C=C1C(=O)OC ) is 39.8 µM (active)

# Potency (compound: CCCCn1c2nc3ccccc3nc2c2c(=O)n(-c3ccccc3)cnc21 ) is 35.5 µM (active)

# Potency (compound: Fc1ccc(C2=NN(c3ccccc3)C(c3ccco3)C2)cc1 (stereo unspecified) ) is 35.5 µM (active)

# Potency (compound: Cc1c(O)ccc2c3c(c(=O)oc12)CCC(C)C3 (stereo unspecified) ) is 35.5 µM (active)

* * *

- TESTED TARGET: Lysosomal alpha-glucosidase (Homo sapiens) (UniProt P10253)
- ASSAY PROTOCOL: qHTS Assay for Activators of Human alpha-Glucosidase as a Potential Chaperone Treatment of Pompe Disease; further: potency means the concentration at half of the fitted maximal effect; nearly all actives have a fitted effect of over 80% in size
- MEASUREMENT CONDITIONS: purified enzyme, 4-MU-alpha-glucoside fluorescence, 20 min; series mostly up to 76.9 µM
The whole screen tested about 200,000 compounds, of which about 720 (0.36%) were called active. Inconclusive results (about 8%) are left out. This is one part of the list.
Answer each item with its documented Potency.

# Potency (compound: O=C(NC1CCC(O)CC1)c1cc(-c2ccco2)nc2ccccc12 (stereo unspecified) ) is 39.8 µM (active)

# Potency (compound: COc1ccccc1N1CCN(C(=O)c2c(-c3ccccc3)noc2C)CC1 ) is 35.5 µM (active)

# Potency (compound: CCc1c(C)c2ccc(O)c(CN(C)C)c2oc1=O ) is 35.5 µM (active)

# Potency (compound: CCc1ccc(S(=O)(=O)c2nnn3c2nc(NCCNC(C)=O)c2ccccc23)cc1 ) is 31.6 µM (active)

# Potency (compound: COC(=O)c1ccccc1NC(=O)/C=C/c1cc(OC)c(OC)c(OC)c1 ) is 35.5 µM (active)

# Potency (compound: CCN(CC)Cc1c(O)ccc2c(C)c(CC(=O)OC)c(=O)oc12 ) is 35.5 µM (active)

* * *

Answer each item with its documented Potency.
- TESTED TARGET: Lysosomal alpha-glucosidase (Homo sapiens)
- ASSAY PROTOCOL: qHTS Assay for Activators of Human alpha-Glucosidase as a Potential Chaperone Treatment of Pompe Disease; further: potency means the concentration at half of the fitted maximal effect; nearly all actives have a fitted effect of over 80% in size
- MEASUREMENT CONDITIONS: purified enzyme, 4-MU-alpha-glucoside fluorescence, 20 min; series mostly up to 76.9 µM
The whole screen tested about 200,000 compounds, of which about 720 (0.36%) were called active. Not shown: some 8% with an inconclusive outcome. The list shows a part of the results.

# Potency (compound: Cc1cccn2c(=O)c3cc(C#N)c(=NC(=O)c4ccncc4)n(CCCOC(C)C)c3nc12 ) is 35.5 µM (active)

# Potency (compound: CN(C)c1oc(/C=C/c2ccccc2)nc1C#N ) is 31.6 µM (active)

# Potency (compound: CN(C)CCNc1oc(/C=C/c2ccccc2)nc1C#N ) is 35.5 µM (active)

# Potency (compound: C=CCNc1oc(/C=C/c2ccccc2)nc1C#N ) is 35.5 µM (active)

# Potency (compound: COCCCn1c(=NC(=O)c2ccncc2)c(C#N)cc2c(=O)n3cccc(C)c3nc21 ) is 35.5 µM (active)

# Potency (compound: COCCCn1c(=NC(=O)c2ccccc2)c(C#N)cc2c(=O)n3cccc(C)c3nc21 ) is 39.8 µM (active)
